# assayRemarks: Peptide hydrogel formation, vial-inverting method
# Format: physicochemical
# conditions: 120 mM peptide (highest tested) in ultrapure water; pH 6.5-8.5 (1 N NaOH), ultrasonication, standing 48 h; vial-inverting method; precipitate, sol, suspension = no gel
Where a SMILES comes first, the peptide text is derived from it.
measurementLabel: State

{"compound": "CC[C@H](C)[C@H](NC(=O)[C@@H](NC(=O)[C@H](Cc1c[nH]cn1)NC(=O)[C@@H](N)CCC(N)=O)[C@@H](C)CC)C(=O)O [QHII] (H-QHII-OH)", "result": "sol"}
{"compound": "CC(C)C[C@H](NC(=O)[C@H](C)NC(=O)[C@@H](N)C(C)C)C(=O)N[C@@H](CCC(=O)O)C(=O)O [VALE] (H-VALE-OH)", "result": "suspension"}
{"compound": "CC[C@H](C)[C@H](N)C(=O)N[C@H](C(=O)N[C@H](C(=O)N[C@@H](CCCNC(=N)N)C(=O)O)[C@@H](C)CC)[C@@H](C)CC [IIIR] (H-IIIR-OH)", "result": "suspension"}
{"compound": "NCC(=O)NCC(=O)NCC(=O)NCC(=O)O [GGGG] (H-GGGG-OH)", "result": "sol"}

*Q* Recorded State of CSCC[C@H](NC(=O)[C@@H](N)CCSC)C(=O)N[C@@H](Cc1ccc(O)cc1)C(=O)N[C@@H](Cc1ccc(O)cc1)C(=O)O [MMYY] (H-MMYY-OH) , please.
*A* suspension

*Q* Repeat for the following compound: CC(C)C[C@H](NC(=O)[C@H](Cc1ccccc1)NC(=O)[C@@H](N)CS)C(=O)N[C@@H](Cc1c[nH]c2ccccc12)C(=O)O [CFLW] (H-CFLW-OH)
*A* suspension

---

# assayRemarks: Peptide hydrogel formation, vial-inverting method
# Assay type: physicochemical
# conditions: concentration at which the state was recorded: lowest of 30, 60, 90, 120 mM that gave a gel; 120 mM for non-gelating peptides
Where a SMILES comes first, the peptide text is derived from it.
measurementLabel: Concentration (µM)
Use µM as the unit, but write only the number.

*Q* Recorded Concentration of C[C@H](NC(=O)[C@@H](N)CS)C(=O)N[C@@H](Cc1ccc(O)cc1)C(=O)N[C@@H](Cc1c[nH]c2ccccc12)C(=O)O [CAYW] (H-CAYW-OH) , please.
*A* 120000

*Q* Repeat for the following compound: NCC(=O)NCC(=O)NCC(=O)NCC(=O)O [GGGG] (H-GGGG-OH)
*A* 120000

*Q* Repeat for the following compound: N[C@@H](Cc1c[nH]c2ccccc12)C(=O)N[C@@H](Cc1ccc(O)cc1)C(=O)N[C@@H](Cc1ccccc1)C(=O)N[C@@H](Cc1ccccc1)C(=O)O [WYFF] (H-WYFF-OH)
*A* 30000

*Q* Repeat for the following compound: O=C(O)[C@H](Cc1ccc(O)cc1)NC(=O)[C@H](Cc1ccc(O)cc1)NC(=O)[C@H](Cc1c[nH]c2ccccc12)NC(=O)[C@@H]1CCCN1 [PWYY] (H-PWYY-OH)
*A* 60000

*Q* Repeat for the following compound: CC(C)[C@H](N)C(=O)N[C@@H](Cc1ccccc1)C(=O)N[C@@H](Cc1c[nH]cn1)C(=O)N[C@@H](CC(N)=O)C(=O)O [VFHN] (H-VFHN-OH)
*A* 120000

*Q* Repeat for the following compound: CC(C)[C@H](NC(=O)[C@H](Cc1c[nH]c2ccccc12)NC(=O)[C@@H](N)CCCNC(=N)N)C(=O)N[C@@H](Cc1ccccc1)C(=O)O [RWVF] (H-RWVF-OH)
*A* 120000

Cited source: paper PMC10313671
